Biological target: JAK1 (Homo sapiens)
Construct: purchased Carna Biosciences, Inc
Sequence (P23458 whole entry): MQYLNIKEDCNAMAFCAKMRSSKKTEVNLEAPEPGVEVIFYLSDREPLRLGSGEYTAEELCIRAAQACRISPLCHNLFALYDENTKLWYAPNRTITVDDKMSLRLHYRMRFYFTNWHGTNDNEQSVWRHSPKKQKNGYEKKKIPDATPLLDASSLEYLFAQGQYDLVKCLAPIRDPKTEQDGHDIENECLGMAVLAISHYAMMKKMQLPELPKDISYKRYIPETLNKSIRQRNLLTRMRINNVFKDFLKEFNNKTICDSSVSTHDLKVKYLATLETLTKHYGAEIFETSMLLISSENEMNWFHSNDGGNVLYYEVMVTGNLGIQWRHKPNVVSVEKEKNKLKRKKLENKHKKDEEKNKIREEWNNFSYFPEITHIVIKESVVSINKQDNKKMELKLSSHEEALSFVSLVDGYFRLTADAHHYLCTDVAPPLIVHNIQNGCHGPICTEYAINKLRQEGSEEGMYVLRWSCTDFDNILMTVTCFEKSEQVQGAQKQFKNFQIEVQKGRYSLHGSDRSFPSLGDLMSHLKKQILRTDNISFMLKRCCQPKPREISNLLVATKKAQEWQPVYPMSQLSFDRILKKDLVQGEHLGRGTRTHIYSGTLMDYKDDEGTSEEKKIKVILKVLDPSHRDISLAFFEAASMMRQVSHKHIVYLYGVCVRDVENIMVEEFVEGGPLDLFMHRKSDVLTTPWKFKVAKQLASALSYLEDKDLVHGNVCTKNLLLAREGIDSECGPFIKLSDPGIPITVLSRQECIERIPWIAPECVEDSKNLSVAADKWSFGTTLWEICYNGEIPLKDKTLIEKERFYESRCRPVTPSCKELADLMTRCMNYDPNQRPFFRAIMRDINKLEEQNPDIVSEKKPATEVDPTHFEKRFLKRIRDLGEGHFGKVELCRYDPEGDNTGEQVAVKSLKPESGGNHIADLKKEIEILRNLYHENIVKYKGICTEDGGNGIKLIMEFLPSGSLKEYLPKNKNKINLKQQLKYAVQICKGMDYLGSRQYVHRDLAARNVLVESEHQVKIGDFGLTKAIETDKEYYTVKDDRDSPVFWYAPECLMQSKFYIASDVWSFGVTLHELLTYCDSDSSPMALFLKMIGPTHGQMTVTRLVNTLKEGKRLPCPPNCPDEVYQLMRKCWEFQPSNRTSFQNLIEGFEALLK
Assay: JAK tyrosine kinase inhibitory activity in the presence of 1 mM ATP (ELISA), JAK1
Assay type: biochemical
ENDPOINT NAME: IC50 (nM)

O=C(NC1CCN(C(=O)c2cc(N[C@H]3CCC[C@@H]3OC(F)F)nc(-c3cnn4ccsc34)n2)CC1)C1CC1 69
COC(=O)NC1CCN(C(=O)c2cc(N[C@@H](C)C3CC3)nc(-c3cnn4ccsc34)n2)CC1 75

(I) CC(C)(CO)Nc1cc(C(=O)N2CCC(NC(=O)C3CC3)CC2)nc(-c2cnn3ccsc23)n1
(II) COC(=O)NC1CCN(C(=O)c2cc(N[C@H]3CC[C@H](O)CC3)nc(-c3cnn4ccsc34)n2)CC1
(III) CCCOC(=O)NC1CCN(C(=O)c2cc(NC(C)(C)C)nc(-c3cnn4ccsc34)n2)CC1
(IV) CC(C)(C)CNc1cc(C(=O)N2CCC(O)CC2)nc(-c2cnn3ccsc23)n1
(V) CC(C)(C)Nc1cc(C(=O)N2CCC(NC(=O)C3CC3)CC2)nc(-c2cnn3ccsc23)n1
Lookup: Let's sort these by IC50, smallest first. Go ahead? Labels, ranked as asked.
Found: III, V, I, II, IV
(III: 58 nM, V: 86 nM, I: 150 nM, II: 510 nM, IV: 1900 nM)

----------
Target: JAK3 (Homo sapiens)
Construct: purchased Carna Biosciences, Inc
Sequence (P52333 whole entry): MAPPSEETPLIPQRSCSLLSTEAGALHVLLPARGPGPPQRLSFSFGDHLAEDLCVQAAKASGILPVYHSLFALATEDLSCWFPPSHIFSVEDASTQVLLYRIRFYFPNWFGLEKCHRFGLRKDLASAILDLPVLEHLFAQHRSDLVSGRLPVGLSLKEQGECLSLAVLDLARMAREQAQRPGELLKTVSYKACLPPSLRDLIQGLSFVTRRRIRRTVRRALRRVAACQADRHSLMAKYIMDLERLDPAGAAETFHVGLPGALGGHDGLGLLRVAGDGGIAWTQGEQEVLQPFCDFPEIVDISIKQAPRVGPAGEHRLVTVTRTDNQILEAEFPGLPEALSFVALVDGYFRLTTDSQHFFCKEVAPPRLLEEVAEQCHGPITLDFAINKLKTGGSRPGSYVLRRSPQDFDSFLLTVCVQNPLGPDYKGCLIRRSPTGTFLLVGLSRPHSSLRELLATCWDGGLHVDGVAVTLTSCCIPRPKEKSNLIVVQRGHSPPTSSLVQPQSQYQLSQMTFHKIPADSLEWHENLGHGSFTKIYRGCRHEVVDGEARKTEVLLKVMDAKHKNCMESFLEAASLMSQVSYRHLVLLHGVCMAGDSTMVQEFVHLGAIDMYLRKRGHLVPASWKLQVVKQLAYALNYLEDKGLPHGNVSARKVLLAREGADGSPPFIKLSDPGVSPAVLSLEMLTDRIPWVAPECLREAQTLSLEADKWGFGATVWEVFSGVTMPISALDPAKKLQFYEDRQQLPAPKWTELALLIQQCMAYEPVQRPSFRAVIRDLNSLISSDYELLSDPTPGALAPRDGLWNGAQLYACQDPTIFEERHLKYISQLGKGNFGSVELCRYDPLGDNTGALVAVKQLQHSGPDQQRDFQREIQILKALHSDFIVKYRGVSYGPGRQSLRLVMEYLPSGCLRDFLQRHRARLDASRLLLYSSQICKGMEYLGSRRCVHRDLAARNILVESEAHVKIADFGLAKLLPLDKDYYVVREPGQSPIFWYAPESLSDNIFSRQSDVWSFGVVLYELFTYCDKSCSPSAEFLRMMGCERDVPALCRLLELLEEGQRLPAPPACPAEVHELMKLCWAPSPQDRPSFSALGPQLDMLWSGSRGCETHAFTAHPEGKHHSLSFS
Experiment: JAK tyrosine kinase inhibitory activity in the presence of 1 mM ATP (ELISA), JAK3
Type: biochemical
Counter-ions that a name gives are not always drawn.
ENDPOINT NAME: IC50 (nM)

// known answers, use as guide
MOLECULE	TARGET SYSTEM	IC50 [nM]
C[C@@H](Nc1cc(C(=O)N2CCC(NC(=O)OCCN(C)C)CC2)nc(-c2cnn3ccsc23)n1)C(C)(C)C [Example 102]	JAK3 (Homo sapiens)	1700
C[C@@H](Nc1cc(C(=O)N2CCC(NC(=O)OCC(F)F)CC2)nc(-c2cnn3ccsc23)n1)C1CC1 [Example 96, hydrochloride]	JAK3 (Homo sapiens)	2200

(a) CC(C)[C@H](C)Nc1cc(C(=O)N2CCC(NC(=O)C3CC3)CC2)nc(-c2cnn3ccsc23)n1 [Example 123]
(b) CC(C)[C@@H](C)Nc1cc(C(=O)N2CCC(NC(=O)C(F)F)CC2)nc(-c2cnn3ccsc23)n1 [Example 136]
(c) C[C@@H](Nc1cc(C(=O)N2CCC(NC(=O)OCC(F)(F)F)CC2)nc(-c2cnn3ccsc23)n1)C1CC1 [Example 103]
Lookup: // ranking: key=IC50, reverse=True I'd appreciate it if you listed the labels in the requested order.
Found: c, b, a
(c: 5900 nM, b: 3500 nM, a: 1600 nM)

(P) CCC(=O)NC1CCN(C(=O)c2cc(N(C)C(CC)CC)nc(-c3cnn4ccsc34)n2)CC1 [Example 116]
(Q) Cc1c(N[C@@H](C)C2CC2)nc(-c2cnn3ccsc23)nc1C(=O)N1CCC(NC(=O)C(F)F)CC1 [Example 18]
(R) CCCOC(=O)NC1CCN(C(=O)c2cc(NC(C)(C)C)nc(-c3cnn4ccsc34)n2)CC1 [Example 82]
Lookup: Please put the entries in order of rising IC50. Your reply should list the labels following the order given in the request.
Found: Q, P, R

(P) CCC(CC)COc1cc(C(=O)N2CCC(NC(=O)C3CC3)CC2)nc(-c2cnn3ccsc23)n1 [Example 107]
(Q) O=C(NC1CCN(C(=O)c2cc(NCC3(COC(F)F)CC3)nc(-c3cnn4ccsc34)n2)CC1)C1CC1 [Example 8]
Lookup: Given the listed items, does P or Q have the lesser reported IC50? Please identify the chosen entry by its label.
Found: P
(P: 1600 nM, Q: 3800 nM)

(P) C[C@@H](COC(F)F)Nc1cc(C(=O)N2CCC(NC(=O)C3CC3)CC2)nc(-c2cnn3ccsc23)n1 [Example 17]
(Q) CCOc1c(N[C@H](C)C(C)(C)C)nc(-c2cnn3ccsc23)nc1C(=O)N1CCC(NC(=O)OC)CC1 [Example 155]
(R) CCC(CC)N(C)c1cc(C(=O)N2CCC(NC(=O)OC)CC2)nc(-c2cnn3ccsc23)n1 [Example 112]
Lookup: Put the items in order so that reported IC50 rises from first to last. Answer by listing the labels in the requested order.
Found: Q, R, P

----------
Target: JAK2 (Homo sapiens)
Construct: purchased Carna Biosciences, Inc
Sequence (O60674 whole entry): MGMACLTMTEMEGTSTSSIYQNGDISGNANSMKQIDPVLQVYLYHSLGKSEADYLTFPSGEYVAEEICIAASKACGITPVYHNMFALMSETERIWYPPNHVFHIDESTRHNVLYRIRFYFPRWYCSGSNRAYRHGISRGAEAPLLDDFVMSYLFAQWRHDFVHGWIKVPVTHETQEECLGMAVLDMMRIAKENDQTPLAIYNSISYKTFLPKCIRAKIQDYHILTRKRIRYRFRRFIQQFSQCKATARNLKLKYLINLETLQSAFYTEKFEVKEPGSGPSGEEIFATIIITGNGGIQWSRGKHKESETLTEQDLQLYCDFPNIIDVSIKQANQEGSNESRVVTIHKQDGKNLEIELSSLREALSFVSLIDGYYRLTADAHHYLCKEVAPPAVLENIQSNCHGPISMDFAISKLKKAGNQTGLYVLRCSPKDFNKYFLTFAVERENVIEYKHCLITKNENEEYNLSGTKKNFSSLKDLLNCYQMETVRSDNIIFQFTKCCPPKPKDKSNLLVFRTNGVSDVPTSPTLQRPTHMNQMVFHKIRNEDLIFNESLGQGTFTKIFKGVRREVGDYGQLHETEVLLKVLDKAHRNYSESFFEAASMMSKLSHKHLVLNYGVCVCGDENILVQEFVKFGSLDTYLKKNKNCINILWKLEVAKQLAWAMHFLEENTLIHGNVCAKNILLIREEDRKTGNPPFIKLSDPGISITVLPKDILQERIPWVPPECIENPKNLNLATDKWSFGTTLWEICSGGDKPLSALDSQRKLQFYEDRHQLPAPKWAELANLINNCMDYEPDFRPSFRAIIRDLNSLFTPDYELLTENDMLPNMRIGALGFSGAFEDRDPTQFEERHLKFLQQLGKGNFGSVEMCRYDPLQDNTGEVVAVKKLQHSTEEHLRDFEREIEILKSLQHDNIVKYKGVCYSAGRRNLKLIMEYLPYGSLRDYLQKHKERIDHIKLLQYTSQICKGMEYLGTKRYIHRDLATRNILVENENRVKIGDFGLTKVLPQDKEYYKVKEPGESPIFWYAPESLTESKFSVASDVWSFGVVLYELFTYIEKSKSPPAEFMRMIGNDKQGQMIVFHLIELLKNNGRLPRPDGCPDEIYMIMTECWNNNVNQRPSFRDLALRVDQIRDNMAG
Assay: JAK tyrosine kinase inhibitory activity in the presence of 1 mM ATP (ELISA), JAK2
Assay type: biochemical
ENDPOINT NAME: IC50 (nM)

(1) CCC1CCCCN1c1cc(C(=O)N2CCC(NC(=O)C3CC3)CC2)nc(-c2cnn3ccsc23)n1 (stereo not shown)
(2) CCC(CC)Nc1cc(C(=O)N2CCC(NC(=O)COC)CC2)nc(-c2cnn3ccsc23)n1
(3) CCC(=O)NC1CCN(C(=O)c2cc(N(C)C(CC)CC)nc(-c3cnn4ccsc34)n2)CC1
Lookup: Kindly sort the 3 molecules above from the smallest to the largest IC50. Would you mind listing the labels in the order requested?
Found: 2, 3, 1
(2: 1300 nM, 3: 1900 nM, 1: 5100 nM)

----------
Target: JAK1 (Homo sapiens)
Construct: purchased Carna Biosciences, Inc
Experiment: JAK tyrosine kinase inhibitory activity in the presence of 1 mM ATP (ELISA), JAK1
Format: biochemical
ENDPOINT NAME: IC50 (nM)

COMPOUND	IC50 / nM
C[C@H](Nc1cc(C(=O)N2CCC(O)CC2)nc(-c2cnn3ccsc23)n1)C(C)(C)C	860

(A) CCOc1c(N[C@H](C)C(C)(C)C)nc(-c2cnn3ccsc23)nc1C(=O)N1CCC(NC(=O)OC)CC1
(B) C[C@@H](Nc1cc(C(=O)N2CCC(NC(=O)OC(C)(C)C)CC2)nc(-c2cnn3ccsc23)n1)C(C)(C)C
Lookup: // max by IC50 over [ A , B ] Provide the label of your selected option as the answer.
Found: B

(I) COC(=O)NC1CCN(C(=O)c2cc(NC(C)(C)CO)nc(-c3cnn4ccsc34)n2)CC1
(II) CCN(c1cc(C(=O)N2CCC(O)CC2)nc(-c2cnn3ccsc23)n1)C(C)(C)C
Lookup: // pick larger IC50 from pair: I vs II Response format: the label of the selected entry.
Found: II
(II: 2900 nM, I: 540 nM)

(a) CC(=O)NC1CCN(C(=O)c2nc(-c3cnn4ccsc34)nc(N[C@@H](C)C3CC3)c2C)CC1
(b) COC(=O)NC1CCN(C(=O)c2cc(NCC3CCN(S(C)(=O)=O)CC3)nc(-c3cnn4ccsc34)n2)CC1
Lookup: Which of the two gives a bigger number for IC50: a or b ? The response must carry the label of the picked entry.
Found: a

(1) COC(=O)NC1CCN(C(=O)c2cc(N[C@H]3CC[C@@H](O)CC3)nc(-c3cnn4ccsc34)n2)CC1
(2) C[C@H](Nc1cc(C(=O)N2CCC(NC(=O)c3ccncc3)CC2)nc(-c2cnn3ccsc23)n1)C1CC1
(3) O=C(NC1CCN(C(=O)c2cc(OCC3CC3)nc(-c3cnn4ccsc34)n2)CC1)C1CC1
Lookup: Sort by IC50, descending. Show the ranking through the labels, in the order asked for.
Found: 1, 3, 2
(1: 300 nM, 3: 130 nM, 2: 68 nM)

(P) CCC(CC)CNc1cc(C(=O)N2CCC(NC(=O)C3CC3)CC2)nc(-c2cnn3ccsc23)n1
(Q) CN(c1cc(C(=O)N2CCC(NC(=O)C3CC3)CC2)nc(-c2cnn3ccsc23)n1)[C@H]1CCC[C@@H]1OC(F)F
(R) O=C(NC1CCN(C(=O)c2cc(NCC3(COC(F)F)CCOCC3)nc(-c3cnn4ccsc34)n2)CC1)C1CC1
Lookup: Ordering criterion: IC50; begin with the maximum. When ranking, write the labels in the order the request describes.
Found: Q, P, R
(Q: 130 nM, P: 78 nM, R: 21 nM)

----------
Biological target: JAK1 (Homo sapiens)
Construct: purchased Carna Biosciences, Inc
Assay: JAK tyrosine kinase inhibitory activity in the presence of 1 mM ATP (ELISA), JAK1
Assay type: biochemical
ENDPOINT NAME: IC50 (nM)

MOLECULE	IC50, nM
C[C@@H](Nc1cc(C(=O)N2CCC(NC(=O)C3CC3)CC2)nc(-c2cnn3ccsc23)n1)C(C)(C)C	53
CCC(=O)NC1CCN(C(=O)c2cc(OCC(CC)CC)nc(-c3cnn4ccsc34)n2)CC1	360
CCOC(=O)NC1CCN(C(=O)c2cc(N[C@H](C)C3CC3)nc(-c3cnn4ccsc34)n2)CC1 [Example 73]	73

(A) COc1ccccc1C(=O)NC1CCN(C(=O)c2cc(N[C@@H](C)C3CC3)nc(-c3cnn4ccsc34)n2)CC1
(B) C[C@@H](Nc1cc(C(=O)N2CCC(NC(=O)OCCN(C)C)CC2)nc(-c2cnn3ccsc23)n1)C(C)(C)C
(C) C[C@H](Nc1cc(C(=O)N2CCC(Nc3nccs3)CC2)nc(-c2cnn3ccsc23)n1)C1CC1
(D) COC(=O)NC1CCN(C(=O)c2cc(N[C@H](C)c3ccc(F)cc3)nc(-c3cnn4ccsc34)n2)CC1
Lookup: List the 4 entries from lowest IC50 to highest IC50 value. Put the labels in the requested order and list them out.
Found: B, A, C, D
(B: 24 nM, A: 81 nM, C: 150 nM, D: 980 nM)
